System: MDA-MB-231
Assay: Antiproliferative activity against human MDA-MB-231 cells assessed as inhibition of cell proliferation after 72 hrs by MTS assay
Assay type: functional, cell-based
Settings: MDA-MB-231, 72 h
Recorded pIC50, one value per entry.
Just the number, please; pIC50 means minus log10 of the concentration in mol/L.

CN[C@@H](C)C(=O)N[C@H](C(=O)N1C[C@@H]2C[C@H]1C(=O)N[C@@H](Cc1ccccc1)C(=O)N[C@H](C(=O)O)Cc1ccc(cc1)OCc1cn2nn1)C(C)C    4.90

Please look up its pIC50: CN[C@@H](C)C(=O)N[C@H](C(=O)N1C[C@@H]2C[C@H]1C(=O)N[C@@H](Cc1ccccc1)C(=O)N[C@H](C(=O)O)Cc1ccc(cc1)OCc1cn(nn1)[C@H]1C[C@@H](C(=O)N[C@@H](Cc3ccccc3)C(=O)N[C@H](C(=O)O)Cc3ccc(cc3)OCc3cn2nn3)N(C(=O)[C@@H](NC(=O)[C@H](C)NC)C(C)C)C1)C(C)C
5.53

Please look up its pIC50: CN[C@@H](C)C(=O)N[C@H](C(=O)N1C[C@@H]2C[C@H]1C(=O)N[C@@H](Cc1cccc3ccccc13)C(=O)N[C@H](C(=O)O)Cc1ccc(cc1)OCc1cn(nn1)[C@H]1C[C@@H](C(=O)N[C@@H](Cc3cccc4ccccc34)C(=O)N[C@H](C(=O)O)Cc3ccc(cc3)OCc3cn2nn3)N(C(=O)[C@@H](NC(=O)[C@H](C)NC)C(C)C)C1)C(C)C
6.71

----------
Target: UniProtKB P98170
Sequence (P98170 whole entry, looked up, the tested form may be a part): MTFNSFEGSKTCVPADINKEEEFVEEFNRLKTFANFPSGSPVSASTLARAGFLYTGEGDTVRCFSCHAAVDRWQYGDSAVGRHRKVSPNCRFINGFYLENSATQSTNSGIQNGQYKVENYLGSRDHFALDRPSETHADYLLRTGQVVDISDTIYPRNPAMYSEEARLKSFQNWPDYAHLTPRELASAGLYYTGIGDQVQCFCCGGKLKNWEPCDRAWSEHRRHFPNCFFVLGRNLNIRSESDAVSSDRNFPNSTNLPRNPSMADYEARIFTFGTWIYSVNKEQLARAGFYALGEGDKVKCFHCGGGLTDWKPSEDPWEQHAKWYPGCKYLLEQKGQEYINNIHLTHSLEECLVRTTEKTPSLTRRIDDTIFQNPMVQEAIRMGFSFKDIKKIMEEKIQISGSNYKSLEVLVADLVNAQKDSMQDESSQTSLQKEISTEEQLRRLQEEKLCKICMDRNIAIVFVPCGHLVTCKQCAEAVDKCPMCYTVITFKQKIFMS
Assay: Inhibition of XIAP BIR3 (241 to 356 residues) (unknown origin) incubated for 60 mins by fluoresceinated modified SMAC peptide based fluorescence polarization assay
Square brackets hold non-standard residues; d marks the D form. Peptide text beside a SMILES is read from it. * marks the point of attachment. NMeA = CN[C@@H](C)C(=O)O; Pra = C#CC[C@H](N)C(=O)O; X2 = [N-]=[N+]=NCC*
ENDPOINT: IC50 (nM)
Give the number; nM is assumed, so skip it.

For orientation, consider the following solved cases.
CN[C@@H](C)C(=O)N[C@H](C(=O)N1C[C@@H]2C[C@H]1C(=O)N[C@@H](Cc1ccc3ccccc3c1)C(=O)N[C@H](C(=O)O)Cc1ccc(cc1)OCc1cn(nn1)[C@H]1C[C@@H](C(=O)N[C@@H](Cc3ccc4ccccc4c3)C(=O)N[C@H](C(=O)O)Cc3ccc(cc3)OCc3cn2nn3)N(C(=O)[C@@H](NC(=O)[C@H](C)NC)C(C)C)C1)C(C)C    40
CN[C@@H](C)C(=O)N[C@H](C(=O)N1C[C@@H]2C[C@H]1C(=O)N[C@@H](Cc1cccc3ccccc13)C(=O)N[C@H](C(=O)O)Cc1ccc(cc1)OCc1cn(nn1)[C@H]1C[C@@H](C(=O)N[C@@H](Cc3cccc4ccccc34)C(=O)N[C@H](C(=O)O)Cc3ccc(cc3)OCc3cn2nn3)N(C(=O)[C@@H](NC(=O)[C@H](C)NC)C(C)C)C1)C(C)C    29

State its IC50 on UniProtKB P98170: C#CC[C@H](NC(=O)[C@H](C)NC)C(=O)N1CCC[C@H]1C(=O)N[C@@H](Cc1ccccc1)C(=O)N[C@@H](Cc1ccc(OCCN=[N+]=[N-])cc1)C(=O)O (H-[NMeA][Pra]PFY(X2)-OH)
180

FYI, the data here is from ChEMBL document CHEMBL3414571.
